# experimental target: BCL6 (Homo sapiens)
# Construct: endogenous in cells; host or cells: T47D breast cancer epithelial cells
# protocol: Immunofluorescence protocol for high content imaging of BCL6 (degradation) in T47D cells, 3 days compound treatment
# Assay type: cell-based
# recorded conditions: read-out: Mean DC50 (nM)* category
reported property: DC50

Worked cases, DC50 given:
compound	experimental target	DC50
CNC(=O)COc1cc2cc(Nc3nc(N4CCC(CN5CCC6(CC5)CCN6c5cccc6c5CN(C5CCC(=O)NC5=O)C6=O)CC4)ncc3Cl)ccc2n(C(C)C)c1=O (stereo not drawn)	BCL6 (Homo sapiens)	< 10 nM
CNC(=O)COc1cc2cc(Nc3nc(N4CCC(O[C@H]5C[C@H](N6CCC7(CCN(c8ccc9c(c8)C(=O)N(C8CCC(=O)NC8=O)C9=O)C7)CC6)C5)CC4)ncc3Cl)ccc2n(C(C)C)c1=O (stereo partly drawn)	BCL6 (Homo sapiens)	< 10 nM

Now for a further compound.
Memo: CNC(=O)COc1cc2cc(Nc3nc(N4CCC(O[C@H]5C[C@H](N6CCC7(CN(c8ccc9c(c8)CN(C8CCC(=O)NC8=O)C9=O)C7)C6)C5)CC4)ncc3Cl)ccc2n(C(C)C)c1=O (stereo partly drawn) , reported DC50: < 10 nM

* * *

Consider the following compounds and their measured Dmax readings.
# experimental target: BCL6 (Homo sapiens)
# Construct: endogenous in cells; host or cells: T47D breast cancer epithelial cells
# protocol: Immunofluorescence protocol for high content imaging of BCL6 (degradation) in T47D cells, 3 days compound treatment
# Format: cell-based
# recorded conditions: T47D cells, 3 days compound treatment, read-out: Mean Dmax (%)** category

Memo: CNC(=O)COc1cc2cc(Nc3nc(N4CCC5(CCN(CC6(F)CCN(c7c(F)ccc8c7CN(C7CCC(=O)NC7=O)C8=O)CC6)CC5)CC4)ncc3Cl)ccc2n(C(C)C)c1=O (stereo not drawn) , reported Dmax: 50 to 70%

Memo: CNC(=O)COc1cc2cc(Nc3nc(N4CCC(F)(CN5CCC6(CC5)CN(c5ccc7c(c5)CN(C5CCC(=O)NC5=O)C7=O)C6)CC4)ncc3Cl)ccc2n(C(C)C)c1=O (stereo not drawn) , reported Dmax: 50 to 70%

Memo: CNC(=O)COc1cc2c(F)c(Nc3nc(N4CCC(O[C@H]5C[C@H](N6CCN(c7ccc8c(c7C)C(=O)N(C7CCC(=O)NC7=O)C8=O)CC6)C5)CC4)ncc3Cl)ccc2n(C(C)C)c1=O (stereo partly drawn) , reported Dmax: ≥ 70%

* * *

# experimental target: BCL6 (Homo sapiens, UniProt P41182)
# Construct: endogenous in cells; host or cells: T47D breast cancer epithelial cells
# protocol: Immunofluorescence protocol for high content imaging of BCL6 (degradation) in T47D cells, 3 days compound treatment
# Assay type: cell-based
# recorded conditions: T47D, read-out: Mean Dmax (%)** category
# Experimental: Immunofluorescence Protocol for High Content Imaging of BCL6 T47D cells were seeded in 100 μl volume of RPMI1640-10% FBS in a 96-well black/clear bottom plates for adherent lines (Corning #3904). Day 1. T47D breast cancer epithelial cells were seeded at a density so that confluence is ˜70-90% at endpoint. Cells were seeded at 7K/0.1 ml/well the morning prior to the addition of exemplary bifunctional degradation compounds. Day 2. […] Plates were equilibrated to room temperature prior to reading. […]
Consider the following compounds and their measured Dmax readings.

compound	Dmax
CNC(=O)COc1cc2cc(Nc3nc(N4CCC(O[C@H]5C[C@H](N6CC7(CN(c8ccc9c(c8C)C(=O)N(C8CCC(=O)NC8=O)C9=O)C7)C6)C5)CC4)ncc3Cl)ccc2n(C(C)C)c1=O (stereo partly shown) [Compound 420]	≥ 70%
CNC(=O)COc1cc2cc(Nc3nc(N4CCN(CC5CCC6(CC5)CN(c5cc7c(cc5F)C(=O)N(C5CCC(=O)NC5=O)C7)C6)CC4)ncc3Cl)ccc2n(C(C)C)c1=O (stereo not shown) [Compound 306]	50 to 70%
CNC(=O)COc1cc2cc(Nc3nc(N4CCC(O[C@H]5C[C@H](N6CCN(c7ccc8c(c7)C(=O)N(C7CCC(=O)NC7=O)C8=O)C[C@@H]6C)C5)CC4)ncc3Cl)ccc2n(C(C)C)c1=O (stereo partly shown) [Compound 261]	50 to 70%
[2H]C([2H])([2H])Oc1c(N2CC3(CCC(OC4CCN(c5ncc(Cl)c(Nc6ccc7c(c6)cc(OCC(=O)NC)c(=O)n7C(C)C)n5)CC4)CC3)C2)ccc2c1CN(C1CCC(=O)NC1=O)C2=O (stereo not shown) [Compound 225]	≥ 70%
CNC(=O)COc1cc2cc(Nc3nc(N4CCC(O[C@H]5C[C@H](N6CC7CCC(C6)N7c6ccc7c(c6)C(=O)N(C6CCC(=O)NC6=O)C7=O)C5)CC4)ncc3Cl)ccc2n(C(C)C)c1=O (stereo partly shown) [Compound 370]	< 50%

Memo: CNC(=O)COc1cc2c(F)c(Nc3nc(N4CCC(O[C@H]5C[C@H](N6CCC(c7ccc8c(c7F)CN([C@H]7CCC(=O)NC7=O)C8=O)CC6)C5)CC4)ncc3Cl)ccc2n(C(C)C)c1=O [Compound 380] , reported Dmax: 50 to 70%

Memo: CNC(=O)COc1cc2cc(Nc3nc(N4CCC(O[C@H]5C[C@H](N6CCC7(CN(c8ccc9c(c8)C(=O)N(C8CCC(=O)NC8=O)C9=O)C7)C6)C5)CC4)ncc3Cl)ccc2n(C(C)C)c1=O (stereo partly shown) [Compound 338] , reported Dmax: ≥ 70%

Memo: CNC(=O)COc1cc2cc(Nc3nc(N4CCC(O[C@H]5C[C@H](N6[C@@H](C)CN(c7ccc8c(c7)CN(C7CCC(=O)NC7=O)C8=O)C[C@@H]6C)C5)CC4)ncc3Cl)ccc2n(C(C)C)c1=O (stereo partly shown) [Compound 254] , reported Dmax: ≥ 70%

Memo: CNC(=O)COc1cc2cc(Nc3nc(N4CCN(CC5CCC6(CC5)CN(c5cccc7c5CN(C5CCC(=O)NC5=O)C7=O)C6)CC4)ncc3Cl)ccc2n(C(C)C)c1=O (stereo not shown) [Compound 313] , reported Dmax: 50 to 70%

Memo: CNC(=O)COc1cc2cc(Nc3nc(N4CCC(O[C@H]5C[C@H](N6CCC(c7ccc8c(c7F)[C@H](C)N(C7CCC(=O)NC7=O)C8=O)CC6)C5)CC4)ncc3Cl)ccc2n(C(C)C)c1=O (stereo partly shown) [Compound 291] , reported Dmax: ≥ 70%

This collection of values is drawn from patent US11986532B2.
